Below, each entry is listed alongside its reported normalized growth.
Assay: chemical genetic growth profiling, strain panel (AID 1159580);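 note: tested at 20 µM; growth read once vehicle control cultures reached saturation at 30 °C; 1 = growth at the plate median or of vehicle wells; lower values mean less growth of the strain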
Details: S. cerevisiae deletion strains, growth OD, locus YLL026W, stronger effect = lower value
Screen size: about 5,500 compounds; about 2,000 (36%) were called active. Roughly 18% stayed inconclusive and do not appear here. This is one part of the list.
experimental readout: normalized growth

[
  {
    "molecule": "COc1cc(O)cc(OC)c1OC",
    "numeric value": 0.998
  },
  {
    "molecule": "COc1cc2c(cc1O)CCNC2C (configuration not stated)",
    "numeric value": 0.987
  },
  {
    "molecule": "Cc1onc(-c2c(Cl)cccc2Cl)c1C(=O)N[C@@H]1C(=O)N2[C@@H]1SC(C)(C)[C@@H]2C(=O)O",
    "numeric value": 1
  },
  {
    "molecule": "CC(=O)OCC(=O)[C@@]1(O)CCC2C3CCC4=CC(=O)CC[C@]4(C)C3[C@@H](O)C[C@@]21C (some centres not stated)",
    "numeric value": 1.01
  },
  {
    "molecule": "Cc1onc(-c2ccccc2)c1C(=O)NC1C(=O)N2[C@@H]1SC(C)(C)[C@@H]2C(=O)O (some centres not stated)",
    "numeric value": 1.01
  },
  {
    "molecule": "CNCC[C@@H](Oc1ccccc1)c1ccccc1",
    "numeric value": 0.97
  },
  {
    "molecule": "CC(=O)N[C@@H](Cc1c[nH]c2ccccc12)C(=O)O",
    "numeric value": 0.99
  },
  {
    "molecule": "CCCCCCCCCCCCCCCCCCOCC(O)CO (configuration not stated)",
    "numeric value": 0.983
  },
  {
    "molecule": "C[C@]12CCC(=O)C=C1CCC1C2C(=O)C[C@@]2(C)C1CC[C@]2(O)C(=O)CO (some centres not stated)",
    "numeric value": 1
  },
  {
    "molecule": "COc1cc(/C=C/C(=O)N2CCC=CC2=O)cc(OC)c1OC",
    "numeric value": 1.01
  },
  {
    "molecule": "CC(NCCC(c1ccccc1)c1ccccc1)c1ccccc1 (configuration not stated)",
    "numeric value": 0.981
  },
  {
    "molecule": "CN1C(=O)CCS(=O)(=O)C1c1ccc(Cl)cc1 (configuration not stated)",
    "numeric value": 0.999
  },
  {
    "molecule": "C#CC1(O)CCC2C3CCC4=CC(=O)CCC4(C)C3CCC21C (configuration not stated)",
    "numeric value": 0.986
  },
  {
    "molecule": "CCCc1nc2c(C)cc(-c3nc4ccccc4n3C)cc2n1Cc1ccc(-c2ccccc2C(=O)O)cc1",
    "numeric value": 1
  },
  {
    "molecule": "CCOc1cccc(C(=O)c2ccc(O)c(O)c2O)c1",
    "numeric value": 0.936
  },
  {
    "molecule": "COc1cccc(OC)c1C(=O)N[C@@H]1C(=O)N2[C@@H]1SC(C)(C)[C@@H]2C(=O)O",
    "numeric value": 0.993
  },
  {
    "molecule": "CC[C@H]1CN2CCc3cc(OC)c(OC)cc3C2C[C@@H]1CC1NCCc2cc(OC)c(OC)cc21 (some centres not stated)",
    "numeric value": 0.992
  }
]

Data provenance is PubChem BioAssay AID1159580.
